- System: rice (Oryza sativa)
- Assay Comment: Test B1 flooded paddy test, rice
- Format: in vivo
- Conditions Used: 250 g ai/ha, Flood, applied to paddy water, 2-leaf stage, visually evaluated after 10 to 14 days
- Description: A dash (-) response means no test result.
Please go through the items and note down their Plant response rating, Rice (0 to 100 scale, 0 is no effect, 100 is complete control).
Would you mind answering with just the numeric figure?

Task: Give Plant response rating, Rice (0 to 100 scale, 0 is no effect, 100 is complete control) for the following molecule: COCC1CC(c2cc(NS(=O)(=O)C(F)(F)F)c(C)cc2C)=NO1 (stereo not drawn)
Output: 30

Task: Supply Plant response rating, Rice (0 to 100 scale, 0 is no effect, 100 is complete control) value. Item: Cc1c(NS(=O)(=O)C(F)(F)F)cc(C(=O)N2CCOCC2)c(C)c1Cl
Output: 0

Task: Query Plant response rating, Rice (0 to 100 scale, 0 is no effect, 100 is complete control) for Cc1c(C(=O)N2CCSCC2)cc(N(COC(=O)C(C)(C)C)S(=O)(=O)C(F)(F)F)c(C)c1C
Output: 0

Task: For the molecule CCOC(=O)N(c1cc(C(=O)N2CCC(C)CC2)c(C)cc1C)S(=O)(=O)C(F)(F)F , give its reported Plant response rating, Rice (0 to 100 scale, 0 is no effect, 100 is complete control).
Output: 15

Task: Give Plant response rating, Rice (0 to 100 scale, 0 is no effect, 100 is complete control) for the following molecule: COC1CCN(C(=O)c2cc(NS(=O)(=O)C(F)(F)F)c(C)c(C)c2C)CC1
Output: 15

Task: Name the recorded Plant response rating, Rice (0 to 100 scale, 0 is no effect, 100 is complete control) of the molecule listed here: CCc1cc(C)c(C2=NOC3(CCCC3)C2)cc1NS(=O)(=O)C(F)(F)F
Output: 0

Task: Tell us which Plant response rating, Rice (0 to 100 scale, 0 is no effect, 100 is complete control) value is on record for Cc1cc(C(F)(F)F)c(C2=NOC3CCCC23)cc1NS(=O)(=O)C(F)(F)F (stereo not drawn)
Output: 0

Task: Output measured Plant response rating, Rice (0 to 100 scale, 0 is no effect, 100 is complete control) for this item: Cc1cc(C)c(C2=NOC3(C)CCCC23)cc1NS(=O)(=O)C(F)(F)F (stereo not drawn)
Output: 10

Task: Supply measured Plant response rating, Rice (0 to 100 scale, 0 is no effect, 100 is complete control) of Cc1cc(C)c(N(COC(=O)C(C)C)S(=O)(=O)C(F)(F)F)cc1C1=NOC2CCCC12 (stereo not drawn) in your reply.
Output: 10

Task: Input COc1cc(C)c(NS(=O)(=O)C(F)(F)F)cc1C1=NOC2CCCC12 (stereo not drawn) , output reported Plant response rating, Rice (0 to 100 scale, 0 is no effect, 100 is complete control).
Output: 0

Task: Supply measured Plant response rating, Rice (0 to 100 scale, 0 is no effect, 100 is complete control) of Cc1c(C(=O)N2CCC(F)CC2)cc(N(COC(=O)C(C)(C)C)S(=O)(=O)C(F)(F)F)c(C)c1C in your reply.
Output: 35

Task: Report measured Plant response rating, Rice (0 to 100 scale, 0 is no effect, 100 is complete control); entry is Cc1c(C(=O)N2C[C@@H](C)O[C@@H](C)C2)cc(N(COC(=O)C(C)(C)C)S(=O)(=O)C(F)(F)F)c(C)c1C
Output: 0

Task: Determine from records and report Plant response rating, Rice (0 to 100 scale, 0 is no effect, 100 is complete control) for Cc1c(C(=O)N2CCCCC2)cc(NS(=O)(=O)C(F)(F)F)c(Cl)c1F
Output: 0

Task: In one line, give reported Plant response rating, Rice (0 to 100 scale, 0 is no effect, 100 is complete control) of the entry Cc1cc(Br)c(C2=NOC3CCCC23)cc1NS(=O)(=O)C(F)(F)F (stereo not drawn) .
Output: 0

Task: Note Plant response rating, Rice (0 to 100 scale, 0 is no effect, 100 is complete control) for the molecule shown: Cc1c(C(=O)N2CCC(C)CC2)cc(N(COC(=O)C(C)(C)C)S(=O)(=O)C(F)(F)F)c(C)c1C
Output: 20

Task: Read off the recorded Plant response rating, Rice (0 to 100 scale, 0 is no effect, 100 is complete control) for CCC1ON=C(c2cc(NS(=O)(=O)C(F)(F)F)c(C)cc2C)C1CC (stereo not drawn)
Output: 15

Task: Report Plant response rating, Rice (0 to 100 scale, 0 is no effect, 100 is complete control) for COC(=O)OCN(c1cc(C2=NOC3CCCC23)c(C)cc1C)S(=O)(=O)C(F)(F)F (stereo not drawn)
Output: 35

Task: Tell me its Plant response rating, Rice (0 to 100 scale, 0 is no effect, 100 is complete control) given Cc1c(C2=NO[C@@H]3CCC[C@H]23)cc(N(COC(=O)C(C)(C)C)S(=O)(=O)C(F)(F)F)c(C)c1C as the entry.
Output: 45

###

What Plant response rating, Kochia was measured for each of the following?
- System: kochia (Bassia scoparia)
- Assay Comment: Test A1 preemergence, kochia
- Format: in vivo
- Conditions Used: 125 g ai/ha, 0 to 100 scale, 0 no effect, 100 complete control
Just the number, please, no unit attached.

Task: Let me know recorded Plant response rating, Kochia for Cc1c(C(=O)N2CCSCC2)cc(N(COC(=O)C(C)(C)C)S(=O)(=O)C(F)(F)F)c(C)c1C [Compound 285] , thanks.
Output: 70

Task: Quick one: give measured Plant response rating, Kochia for Cc1c(C(=O)N2CCC(F)(F)CC2)cc(N(COC(=O)C(C)(C)C)S(=O)(=O)C(F)(F)F)c(C)c1C [Compound 360]
Output: 30

Task: Supply recorded Plant response rating, Kochia for Cc1c(C(=O)N2CCC(F)CC2)cc(N(COC(=O)C(C)(C)C)S(=O)(=O)C(F)(F)F)c(C)c1C [Compound 361] here.
Output: 30

Task: Give the measured Plant response rating, Kochia for CCOC1CC(c2cc(N(COC(=O)C(C)(C)C)S(=O)(=O)C(F)(F)F)c(C)cc2C)=NO1 (stereo not shown) [Compound 339]
Output: 90

Task: Annotate the molecule Cc1c(NS(=O)(=O)C(F)(F)F)cc(C(=O)N2CCOCC2)c(C)c1Cl [Compound 290] with its measured Plant response rating, Kochia.
Output: 30

Task: Tell us which Plant response rating, Kochia value is on record for Cc1c(NS(=O)(=O)C(F)(F)F)cc(C2=NOC3CCCC23)c(C)c1C (stereo not shown) [Compound 335]
Output: 60

Task: Read off the recorded Plant response rating, Kochia for Cc1cc(C)c(N(COC(=O)C(C)(C)C)S(=O)(=O)C(F)(F)F)cc1C1=NOC2OCCC12 (stereo not shown) [Compound 352]
Output: 100

###

- Tested on: goosegrass (Eleusine indica)
- Assay Comment: Test A1 preemergence, goosegrass
- Assay type: in vivo
- Conditions Used: 31 g ai/ha, 0 to 100 scale (0 no effect, 100 complete control)
Assign TRUE whenever Plant response rating, Goosegrass does not fall below 20; assign FALSE whenever it does.

Task: Exam item: decide whether the reported Plant response rating, Goosegrass for Cc1cc(Br)c(C2=NOC3CCCC23)cc1NS(=O)(=O)C(F)(F)F (centres unmarked) [Compound 302] is at least 20.
Output: FALSE

Task: Check the entry Cc1cc(C2CC2)c(NS(=O)(=O)C(F)(F)F)cc1C1=NOC2(CCCC2)C1 [Compound 313] : does Plant response rating, Goosegrass equal or exceed 20?
Output: FALSE

Task: Given Cc1c(NS(=O)(=O)C(F)(F)F)cc(C(=O)N2CC(C)OC(C)C2)c(C)c1C (centres unmarked) [Compound 327] , state whether its Plant response rating, Goosegrass is at least 20.
Output: TRUE

Task: Check this molecule for Plant response rating, Goosegrass at or above 20: Cc1cc(C)c(-n2nccc(C)c2=O)cc1NS(=O)(=O)C(F)(F)F [Compound 281]
Output: FALSE

Task: Could you tell me if the measured Plant response rating, Goosegrass of CCC1ON=C(c2cc(NS(=O)(=O)C(F)(F)F)c(C)cc2C)C1CC (centres unmarked) [Compound 346] reaches 20 or more?
Output: TRUE

Task: Could you verify whether the entry Cc1cc(C)c(N(S(=O)(=O)C(F)(F)F)S(=O)(=O)C(F)(F)F)cc1N1CCC2(CCC(C(F)(F)F)CC2)C1=O (centres unmarked) [Compound 399] shows Plant response rating, Goosegrass of no less than 20?
Output: TRUE

Task: For this molecule, is measured Plant response rating, Goosegrass 20 or higher? Cc1c(C(=O)N2C[C@@H](C)O[C@@H](C)C2)cc(N(COC(=O)C(C)(C)C)S(=O)(=O)C(F)(F)F)c(C)c1C [Compound 331]
Output: FALSE
